B1: library; numbered along this chain (parent)
chain: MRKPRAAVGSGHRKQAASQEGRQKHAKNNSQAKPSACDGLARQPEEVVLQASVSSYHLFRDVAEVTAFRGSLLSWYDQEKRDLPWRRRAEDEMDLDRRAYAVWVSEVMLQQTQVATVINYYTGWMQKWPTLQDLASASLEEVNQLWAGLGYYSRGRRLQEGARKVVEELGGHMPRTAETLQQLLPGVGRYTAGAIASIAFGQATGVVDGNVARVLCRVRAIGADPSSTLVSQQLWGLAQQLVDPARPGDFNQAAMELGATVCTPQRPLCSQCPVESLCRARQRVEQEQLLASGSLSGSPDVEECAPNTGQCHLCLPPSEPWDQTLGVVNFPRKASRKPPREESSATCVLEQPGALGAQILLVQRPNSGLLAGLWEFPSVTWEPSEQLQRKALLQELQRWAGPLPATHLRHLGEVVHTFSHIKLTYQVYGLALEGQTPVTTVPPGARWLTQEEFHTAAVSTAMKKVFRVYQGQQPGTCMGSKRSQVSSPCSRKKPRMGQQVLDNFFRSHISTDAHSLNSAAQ

# Variants of: B1
# PROCEDURE_TEXT: 8OG:A repair function score (normalized; synonymous = 0, nonsense = -1) (normalized log-likelihood score); higher = more repair activity (WT-like);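 also: cells sorted at 72 h after reporter transfection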
# CONDITION_CONTEXT: with 8OG:A DNA repair reporter (GFP) in HEK-293 MUTYH KO cells
8OG:A repair function score values for the variants below.
# respond with the number and nothing more

Study these solved cases before continuing.
A334K    0.00736
L387R    -0.0979
E385A    0.0147
N307D    0.0758
Q240G    -1

Provide one value: measured 8OG:A repair function score of `T324E`
-0.099

Provide one value: measured 8OG:A repair function score of `P129L`
-0.577
